src = PubChem BioAssay (NCI)

Test system: TK-10 renal
test: NCI-60 one-dose screen, 48 h (100 = growth as untreated, 0 = no growth, -100 = all killed)
conditions.used: 10 µM unless noted
This is part of a sample that, as a whole, favours compounds with a hit. Of some 83,000 tested, about 20% had one in any assay. The source made the active and inactive calls. Rule for the calls: active = growth percent below 10; inactive = the rest.
A collection of compounds and their measured growth
reported.metric: growth

> print(dat)
                                   compound  assayed.target            result
1  CCOc1ccccc1[C@H]1C(C(=O)c2ccc(Cl)cc2)C2(N[C@@H]1c1ccccc1)C(=O)Nc1ccccc12 (some centres not stated)     TK-10 renal    36% (inactive)
2  O=C1Nc2ccccc2/C1=C/C(=O)c1cc2ccccc2oc1=O     TK-10 renal   102% (inactive)
3  C[C@@H]1[C@H]2C[C@@H](C[C@H]1NCc1nc3ccccc3n1C1CCCCCC1)C2(C)C     TK-10 renal  90.8% (inactive)
4     COc1ccccc1Nc1nnc(-c2c[nH]c3ccccc23)o1     TK-10 renal  22.8% (inactive)
5  CCCn1c(NC(=O)c2cccc(C(N)=O)c2)nc2cc(CN3CCCCC3)ccc21     TK-10 renal  92.6% (inactive)
6  CC(C)(C)C(=O)c1c2c(c3ccc4c5ccccc5ccc4n13)C(=O)c1ccccc1C2=O     TK-10 renal   118% (inactive)
7       FC(F)(F)c1cc2c(Cl)ncnc2n1CCC1CCOCC1     TK-10 renal  98.3% (inactive)
